- ASSAYED SYSTEM: T1, CD47 on the CD47-overexpressing breast cancer cell line MCF-7 (UniProt Q08722 19-323, limits assumed)
- T1 construct: whole, on cells; Endogenous CD47 on MCF-7 cells; The positive control used on these cells is an anti-human CD47 antibody; also called CD47 overexpressing tumor cells (MCF-7); MCF-7 cells expressing CD47
- T1 sequence (Q08722 19-323 limits assumed): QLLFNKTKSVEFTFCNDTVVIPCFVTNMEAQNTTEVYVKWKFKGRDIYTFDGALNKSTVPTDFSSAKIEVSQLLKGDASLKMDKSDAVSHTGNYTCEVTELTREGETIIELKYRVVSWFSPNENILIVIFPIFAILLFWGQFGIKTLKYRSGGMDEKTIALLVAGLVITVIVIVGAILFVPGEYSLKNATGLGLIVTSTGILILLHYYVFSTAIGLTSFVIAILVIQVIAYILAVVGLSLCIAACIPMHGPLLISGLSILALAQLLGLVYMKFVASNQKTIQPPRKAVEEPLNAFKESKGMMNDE
- TEST DETAILS: flow cytometry on MCF-7 cells, 1 µg antibody

BINDER	binding result
Hu3A5 (V15) antibody (antibody, V domains shown, Humanized 3A5) VH: QVQLVQSGSELKKPGASVKVSCKASGYTFTSYWMNWVRQAPGQGLEWMGVIDPSDSYTSYNQGFTGRFVFSVDTSVSTAYLQISSLKAEDTAVYYCARGGKRAMDYWGQGTTVTVSS VL: DVVMTQSPDSLAVSLGERATINCKSSQSLVHSNGNTYLHWYQQKPGQPPKLLIYKVSNRFSGVPDRFSGSGSGTDFTLTISSLQAEDVAVYFCSQSTHVPFTFGGGTKLEIK	binds
Hu3A5 (V3) antibody (antibody, V domains shown, Humanized 3A5) VH: EVQLVQSGAEVKKPGASVKVSCKASGYTFTSYWMHWMRQAPGQGLEWIGVIDPSDSYTSYNQKFQGRVTLTVDTSTSTAYMELSSLRSEDTAVYYCARGGKRAMDYWGQGTTVTVSS VL: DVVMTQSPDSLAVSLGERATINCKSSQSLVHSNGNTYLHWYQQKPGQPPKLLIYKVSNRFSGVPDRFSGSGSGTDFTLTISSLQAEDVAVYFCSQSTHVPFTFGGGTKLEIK	binds
